test system: Pseudomonas aeruginosa; assay: MIC, compound in combination with a second agent (broth microdilution); type: cell-based; settings: 1:1 (wt:wt) combination with Rifampicin; MIC = total drug concentration; strain CCUG 59626
Where a name gives a salt, the structure may show the parent alone. Numbered stars: 1 amine (or outer) side, 2 acyl side, 3 side chain; on linkers, the order of the positions; unused ones are H or OH. Bridge positions count the residues as written; N and C are the ends. Square brackets hold non-standard residues; d marks the D form. Peptide text beside a SMILES is read from it. * marks the point of attachment. ξ: configuration not given here. Cyclohexanoyl(cis-4-NH2) = N[C@H]1CC[C@@H](C(=O)*)CC1; Achc(trans-4) = O=C([C@H]1CC[C@H](N[*:1])CC1)[*:2]; ξHexahydromandeloyl = O=C(C(O)C1CCCCC1)*; X6 = N[C@@H](CC(=O)*)c1ccc2ccccc2c1; ξβ3hGly(cHex) = NC(CC(=O)*)C1CCCCC1; Hyp = O=C(O)[C@@H]1C[C@@H](O)CN1; Thr(3ξ) = CC(O)[C@H](N)C(=O)O; Dab = NCC[C@H](N)C(=O)O; Dap = NC[C@H](N)C(=O)O; X1 = CCCCCCC(O)C(=O)*; Inp = O=C(O)C1CCNCC1
Measured MIC P. aeruginosa CCUG 59626 values are reported for all entries that follow.
Give your result in micrograms/mL as a bare value.

Requested field: MIC P. aeruginosa CCUG 59626. Item: CCCCCCC(O)C(=O)N[C@H](C(=O)N[C@@H](CCN)C(=O)N[C@H]1CCNC(=O)[C@H](C(C)O)NC(=O)[C@H](CCN)NC(=O)[C@H](CCN)NC(=O)[C@H](CC(C)C)NC(=O)[C@@H](CC(C)C)NC(=O)[C@H](CCN)NC1=O)C(C)O (mixture of isomers) [Example 19]
1

***
Requested field: MIC P. aeruginosa CCUG 59626. Item: CC(C)C[C@@H]1NC(=O)[C@@H](Cc2ccccc2)NC(=O)[C@H](CCN)NC(=O)[C@@H](NC(=O)[C@H](CN)NC(=O)[C@@H](NC(=O)CC(N)C2CCCCC2)C(C)O)CCNC(=O)[C@H](C(C)O)NC(=O)[C@H](CCN)NC(=O)[C@H](CCN)NC1=O (stereo partly drawn) [Example 47, TFA salt] ({ξβ3hGly(cHex)}-[Thr(3ξ)][Dap][Dab][Dab][dF]L[Dab][Dab][Thr(3ξ)]; lactam 3-C)
0.125

Requested field: MIC P. aeruginosa CCUG 59626. Item: CC(C)C[C@@H]1NC(=O)[C@@H](Cc2ccccc2)NC(=O)[C@H](CCN)NC(=O)[C@@H](NC(=O)[C@H](CCN)NC(=O)[C@@H](NC(=O)C[C@H](N)c2ccc3ccccc3c2)C(C)O)CCNC(=O)[C@H](C(C)O)NC(=O)[C@H](CCN)NC(=O)[C@H](CCN)NC1=O (some centres unmarked) [Example 38, trifluoroacetate salt] (X6-[Thr(3ξ)][Dab][Dab][Dab][dF]L[Dab][Dab][Thr(3ξ)]; lactam 3-C)
0.5

Requested field: MIC P. aeruginosa CCUG 59626. Item: CC(C)C[C@@H]1NC(=O)[C@@H](Cc2ccccc2)NC(=O)[C@H](CCN)NC(=O)[C@@H](NC(=O)[C@H](CN)NC(=O)[C@@H](NC(=O)C(O)C2CCCCC2)C(C)O)CCNC(=O)[C@H](C(C)O)NC(=O)[C@H](CCN)NC(=O)[C@H](CCN)NC1=O (some centres unmarked) [Example 45, TFA salt] (ξHexahydromandeloyl-[Thr(3ξ)][Dap][Dab][Dab][dF]L[Dab][Dab][Thr(3ξ)]; lactam 3-C)
0.25

Requested field: MIC P. aeruginosa CCUG 59626. Item: CC(C)C[C@@H]1NC(=O)[C@@H](CC(C)C)NC(=O)[C@H](CCN)NC(=O)[C@@H](NC(=O)[C@H](CCN)NC(=O)[C@@H](NC(=O)C(O)C2CCCCC2)C(C)O)CCNC(=O)[C@H](C(C)O)NC(=O)[C@H](CCN)NC(=O)[C@H](CCN)NC1=O (single isomer, unassigned; isomer 1) [Example 31]
0.25

Requested field: MIC P. aeruginosa CCUG 59626. Item: CC(C)C[C@@H]1NC(=O)[C@@H](Cc2ccccc2)NC(=O)[C@H](CCN)NC(=O)[C@@H](NC(=O)[C@H](CCN)NC(=O)[C@@H](NC(=O)[C@@H]2C[C@@H](O)CN2)C(C)O)CCNC(=O)[C@H](C(C)O)NC(=O)[C@H](CCN)NC(=O)[C@H](CCN)NC1=O (some centres unmarked) [Example 35, trifluoroacetate salt] (H-[Hyp][Thr(3ξ)][Dab][Dab][Dab][dF]L[Dab][Dab][Thr(3ξ)]; lactam 4-C)
0.5

Requested field: MIC P. aeruginosa CCUG 59626. Item: CC(C)C[C@@H]1NC(=O)[C@@H](Cc2ccccc2)NC(=O)[C@H](CCN)NC(=O)[C@@H](NC(=O)[C@H](CCN)NC(=O)[C@@H](NC(=O)[C@H]2CC[C@@H](N)CC2)C(C)O)CCNC(=O)[C@H](C(C)O)NC(=O)[C@H](CCN)NC(=O)[C@H](CCN)NC1=O (stereo partly drawn) [Example 20] ({Cyclohexanoyl(cis-4-NH2)}-[Thr(3ξ)][Dab][Dab][Dab][dF]L[Dab][Dab][Thr(3ξ)]; lactam 3-C)
0.125

Requested field: MIC P. aeruginosa CCUG 59626. Item: CC(C)C[C@@H]1NC(=O)[C@@H](Cc2ccccc2)NC(=O)[C@H](CCN)NC(=O)[C@@H](NC(=O)[C@H](CCCCN)NC(=O)[C@@H](NC(=O)C2CCNCC2)C(C)O)CCNC(=O)[C@H](C(C)O)NC(=O)[C@H](CCN)NC(=O)[C@H](CCN)NC1=O (some centres unmarked) [Example 51, TFA salt] (H-[Inp][Thr(3ξ)]K[Dab][Dab][dF]L[Dab][Dab][Thr(3ξ)]; lactam 4-C)
0.5

Requested field: MIC P. aeruginosa CCUG 59626. Item: CCCCCCC(O)C(=O)N[C@H](C(=O)N[C@@H](CCN)C(=O)N[C@H]1CCNC(=O)[C@H]([C@@H](C)O)NC(=O)[C@H](CCN)NC(=O)[C@H](CCN)NC(=O)[C@H](CC(C)C)NC(=O)[C@@H](Cc2ccccc2)NC(=O)[C@H](CCN)NC1=O)[C@@H](C)O (some centres unmarked) [Example 1] (X1-T[Dab][Dab][Dab][dF]L[Dab][Dab]T; lactam 3-C)
1

Requested field: MIC P. aeruginosa CCUG 59626. Item: CC(C)C[C@@H]1NC(=O)[C@@H](Cc2ccccc2)NC(=O)[C@H](CCN)NC(=O)[C@@H](NC(=O)[C@H](CCN)NC(=O)[C@@H](NC(=O)[C@H]2CC[C@H](N)CC2)[C@@H](C)O)CCNC(=O)[C@H]([C@@H](C)O)NC(=O)[C@H](CCN)NC(=O)[C@H](CCN)NC1=O [Example 17] (H-[Achc(trans-4)]T[Dab][Dab][Dab][dF]L[Dab][Dab]T; lactam 4-C)
0.125
